Source: patent US12565497B2

# Target Of Assay: Recombinant human Mat2a (Homo sapiens (Human), UniProt P31153)
# Sequence (P31153 whole entry): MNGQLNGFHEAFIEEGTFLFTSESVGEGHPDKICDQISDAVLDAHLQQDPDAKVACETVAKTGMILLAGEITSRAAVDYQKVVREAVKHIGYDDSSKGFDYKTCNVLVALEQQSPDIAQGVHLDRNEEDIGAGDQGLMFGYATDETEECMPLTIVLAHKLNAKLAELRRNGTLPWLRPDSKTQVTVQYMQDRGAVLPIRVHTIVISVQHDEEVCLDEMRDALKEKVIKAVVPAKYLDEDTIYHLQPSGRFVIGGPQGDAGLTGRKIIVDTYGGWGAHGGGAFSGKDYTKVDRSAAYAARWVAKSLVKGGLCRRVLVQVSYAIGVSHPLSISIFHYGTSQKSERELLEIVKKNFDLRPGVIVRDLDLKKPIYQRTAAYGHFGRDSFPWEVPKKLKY
# Assay: Determination of Mat2A activity (384 well absorbance-based assay, Biomol Green)
# Format: biochemical
# Experimental Context: 12.5 nM Mat2A, 100 μM ATP and Methionine, 2% DMSO, 120 minutes at RT, absorbance at 635 nm; read-out: MAT2A_LEC IC50 (uM) (Num)
Assay Readout: IC50 (µM)

(P) Cc1cc(-n2c(=O)c(C)cc3[nH]nc(C4CC4)c32)ccc1S(C)(=O)=O
(Q) Cc1cc(-c2c(C#N)ncc3[nH]nc(C4CC4)c23)c(F)cc1S(C)(=O)=O
Task item: Which has the higher IC50, P or Q ? Refer to your chosen item by its label in the answer.
Reply: P
